Assay: label from the status in PepcDB records
endpoint-label: protein production

MASSDRGTSTLQGWHALQTLWRGDQRSVIQGLPHSQLAPAWQLLLLGDGSPTRHLQLLTGEPTAVDVIEMAPIADQDDGAPPPIRAIAGPRLRRQVWLRTASGQRLAYATSWWTQQRVDAYLRDRAQPIWANLADLRTELYRDIQGVEYGDSAALSEAFGQTGPFWGRYYLFWHQGQPLTLIYEVFSPAIATYLGPSTPQPVV    failed
MSERKINDEPKSMLLLQRGEEFGKVNNGSKNRAFSSFTKFKIPSQFKTNSSITSFSNRREDIREPNSNSLFSMYNNDVLLKYDTTEVALATTNMFTHTVWNNKSEEIISYGYGSHVSFSCFIGFHY    failed

Cited source: a protein production outcome set (Wang et al. 2014)
